The values you see were collected from patent US11098055B2.

- System: C. parapsilosis ATCC 22019
- assay.comment: Anti-Fungal (Candida) Activity Assay, broth microtiter MIC
- Assay type: cell-based
- setup.conditions: Lodderomyces parapsilosis, ATCC22019, 48 h, Table 3a; 3 replicates; MIC read at 48 h
Overview of reported MIC across a group of molecules:
assay.readout: MIC

line.notation: CCOC(=O)c1sc2c(c1C)c(=O)n(C(C)(C)C(N)=O)c(=O)n2C[C@H](OCCO)c1cc(F)ccc1OC
assay.target: C. parapsilosis ATCC 22019
measured.result: > 4.1 µg/mL
//
line.notation: CCOC(=O)c1sc2c(c1C)c(=O)n(C(C)(C)C(=O)NC(C)C)c(=O)n2C[C@H](OC(C)C)c1ccccc1OC
assay.target: C. parapsilosis ATCC 22019
measured.result: 2.1 to 4 µg/mL
//
line.notation: CCOC(=O)c1sc2c(c1C)c(=O)n(C(C)(C)C(=O)NC(C)C)c(=O)n2C[C@H](OC1CCOCC1)c1ccccc1OC
assay.target: C. parapsilosis ATCC 22019
measured.result: 1.1 to 2 µg/mL
//
line.notation: CCOC(=O)c1sc2c(c1C)c(=O)n(C(C)(C)C(=O)N1CCOCC1)c(=O)n2C[C@H](OC(C)C)c1ccccc1OC
assay.target: C. parapsilosis ATCC 22019
measured.result: > 4.1 µg/mL
//
line.notation: CCOC(=O)c1sc2c(c1C)c(=O)n(C(C)(C)C(N)=O)c(=O)n2C[C@H](OCCOC)c1cc(F)ccc1OC
assay.target: C. parapsilosis ATCC 22019
measured.result: > 4.1 µg/mL
//
line.notation: CCNC(=O)C(C)(C)n1c(=O)c2c(C)c(C(=O)OCC)sc2n(C[C@H](OC(C)C)c2ccccc2OC)c1=O
assay.target: C. parapsilosis ATCC 22019
measured.result: > 4.1 µg/mL
//
line.notation: CCOC(=O)c1sc2c(c1C)c(=O)n(C(C)(C)C(=O)N1CCCC1)c(=O)n2C[C@H](OC(C)C)c1ccccc1OC
assay.target: C. parapsilosis ATCC 22019
measured.result: 2.1 to 4 µg/mL

----------
- assay.target: fACC2 (UniProt Q00955)
- Sequence (Q00955 whole entry): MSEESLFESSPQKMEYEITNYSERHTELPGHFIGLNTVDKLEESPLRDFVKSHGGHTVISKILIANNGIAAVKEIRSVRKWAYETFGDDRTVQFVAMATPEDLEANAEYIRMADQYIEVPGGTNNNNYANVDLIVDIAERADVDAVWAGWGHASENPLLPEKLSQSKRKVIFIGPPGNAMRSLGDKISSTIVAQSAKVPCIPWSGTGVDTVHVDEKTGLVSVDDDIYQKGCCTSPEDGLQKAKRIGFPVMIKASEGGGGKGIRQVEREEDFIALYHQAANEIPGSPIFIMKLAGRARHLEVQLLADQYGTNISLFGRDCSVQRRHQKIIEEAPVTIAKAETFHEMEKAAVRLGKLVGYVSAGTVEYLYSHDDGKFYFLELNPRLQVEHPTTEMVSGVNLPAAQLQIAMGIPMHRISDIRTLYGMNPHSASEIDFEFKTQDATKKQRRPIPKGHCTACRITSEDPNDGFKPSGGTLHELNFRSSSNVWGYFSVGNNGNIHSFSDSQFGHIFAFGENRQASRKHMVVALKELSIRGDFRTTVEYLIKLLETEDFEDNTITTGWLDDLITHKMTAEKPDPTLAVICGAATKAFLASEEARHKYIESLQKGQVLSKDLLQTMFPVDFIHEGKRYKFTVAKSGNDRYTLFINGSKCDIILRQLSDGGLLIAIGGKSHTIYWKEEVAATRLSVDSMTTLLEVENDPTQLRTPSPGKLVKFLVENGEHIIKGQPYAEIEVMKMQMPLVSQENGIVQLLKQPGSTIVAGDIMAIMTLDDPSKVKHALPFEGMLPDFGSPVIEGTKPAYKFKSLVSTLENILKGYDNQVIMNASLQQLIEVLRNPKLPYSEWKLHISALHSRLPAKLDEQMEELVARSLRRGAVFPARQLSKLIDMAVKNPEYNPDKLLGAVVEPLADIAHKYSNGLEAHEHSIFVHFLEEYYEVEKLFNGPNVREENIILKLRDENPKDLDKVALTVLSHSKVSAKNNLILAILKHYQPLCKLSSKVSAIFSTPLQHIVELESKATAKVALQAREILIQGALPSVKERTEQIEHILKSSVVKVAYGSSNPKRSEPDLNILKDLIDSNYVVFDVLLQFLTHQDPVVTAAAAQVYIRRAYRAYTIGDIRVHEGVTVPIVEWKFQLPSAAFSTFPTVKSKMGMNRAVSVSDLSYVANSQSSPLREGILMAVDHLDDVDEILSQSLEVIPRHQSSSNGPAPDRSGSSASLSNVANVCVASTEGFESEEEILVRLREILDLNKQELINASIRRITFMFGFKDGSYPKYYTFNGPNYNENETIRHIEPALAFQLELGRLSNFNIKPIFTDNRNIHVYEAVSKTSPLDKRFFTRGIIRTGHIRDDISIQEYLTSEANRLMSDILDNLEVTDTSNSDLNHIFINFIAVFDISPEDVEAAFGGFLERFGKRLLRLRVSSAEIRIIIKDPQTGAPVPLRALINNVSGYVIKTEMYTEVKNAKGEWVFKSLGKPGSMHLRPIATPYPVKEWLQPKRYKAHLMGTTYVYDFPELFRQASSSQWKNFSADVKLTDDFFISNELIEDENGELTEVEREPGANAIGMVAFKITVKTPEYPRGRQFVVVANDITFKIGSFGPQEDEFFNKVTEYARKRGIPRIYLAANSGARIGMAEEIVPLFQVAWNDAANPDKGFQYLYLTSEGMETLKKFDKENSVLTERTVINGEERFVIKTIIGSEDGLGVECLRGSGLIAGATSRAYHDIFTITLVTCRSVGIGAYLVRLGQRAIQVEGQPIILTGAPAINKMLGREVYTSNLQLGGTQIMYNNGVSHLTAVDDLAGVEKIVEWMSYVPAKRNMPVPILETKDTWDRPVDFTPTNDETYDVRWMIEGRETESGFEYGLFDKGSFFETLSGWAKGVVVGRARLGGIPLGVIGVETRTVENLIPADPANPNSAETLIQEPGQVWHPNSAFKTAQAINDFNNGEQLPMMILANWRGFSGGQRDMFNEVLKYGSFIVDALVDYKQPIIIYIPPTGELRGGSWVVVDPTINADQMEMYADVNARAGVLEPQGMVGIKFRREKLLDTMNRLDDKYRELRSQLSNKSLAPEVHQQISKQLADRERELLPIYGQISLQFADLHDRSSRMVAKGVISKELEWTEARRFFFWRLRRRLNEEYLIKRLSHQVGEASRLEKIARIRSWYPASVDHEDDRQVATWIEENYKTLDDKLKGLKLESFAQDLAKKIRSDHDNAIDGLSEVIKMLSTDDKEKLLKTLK
- assay.comment: In vitro ACC2 inhibition assay (ADP-Glo), fungal ACC2
- Format: biochemical
- setup.conditions: Table 2b (additional results)
pIC50: −log10 of the molar value.
assay.readout: pIC50

compound: CCNC(=O)C(C)(C)n1c(=O)c2c(C)c(C(=O)OCC)sc2n(C[C@H](OCCC#N)c2cc(F)ccc2OC)c1=O [Compound I-29]
assay.target: fACC2 (UniProt Q00955)
measured.result: 8.52 to 9.52
//
compound: CCOC(=O)c1sc2c(c1C)c(=O)n(C(C)(C)C(N)=O)c(=O)n2C[C@H](OCCOC)c1cc(F)ccc1OC [Compound I-10]
assay.target: fACC2 (UniProt Q00955)
measured.result: 8.00 to 8.52
//
compound: CCOC(=O)c1sc2c(c1C)c(=O)n(C(C)(C)C(=O)NC(C)C)c(=O)n2C[C@H](OC1CCOCC1)c1ccccc1OC [Compound I-8]
assay.target: fACC2 (UniProt Q00955)
measured.result: 8.52 to 9.52

----------
- System: C. krusei ATCC 6258
- assay.comment: Anti-Fungal (Candida) Activity Assay, broth microtiter MIC
- Format: cell-based, Candida krusei
- setup.conditions: Pichia kudriavzevii, ATCC6258, 48 h, Table 3b (additional results); 3 replicates; MIC read at 48 h
Overview of reported MIC across a group of compounds:

compound: CCOC(=O)c1sc2c(c1C)c(=O)n(C(C)(C)C(=O)N1CCCC1)c(=O)n2C[C@H](OCCOC)c1cc(F)ccc1OC [Compound I-13]
MIC: 2.1 to 4 µg/mL
--
compound: CCOC(=O)c1sc2c(c1C)c(=O)n([C@@H](C)C(=O)NC(C)C)c(=O)n2C[C@H](OCCC#N)c1cc(F)ccc1OC [Compound I-20]
MIC: 1.1 to 2 µg/mL
--
compound: CCOC(=O)c1sc2c(c1C)c(=O)n([C@H](C)C(=O)NC(C)C)c(=O)n2C[C@H](O)c1cc(F)ccc1OC [Compound I-43]
MIC: 2.1 to 4 µg/mL
--
compound: CCOC(=O)c1sc2c(c1C)c(=O)n(C(C)(C)C(=O)NC(C)C)c(=O)n2C[C@H](OCC(C)(C)C#N)c1ccccc1OC [Compound I-38]
MIC: > 4.1 µg/mL
--
compound: CCNC(=O)C(C)(C)n1c(=O)c2c(C)c(C(=O)OCC)sc2n(C[C@H](OC2CCOCC2)c2ccccc2OC)c1=O [Compound I-1]
MIC: 2.1 to 4 µg/mL
--
compound: CCOC(=O)c1sc2c(c1C)c(=O)n(C(C)(C)C(=O)NC(C)C)c(=O)n2C[C@H](OCCC#N)c1ccccc1OC [Compound I-31]
MIC: 0.25 to 1 µg/mL
--
compound: CCOC(=O)c1sc2c(c1C)c(=O)n(C(C)(C)C(=O)N1CCCC1)c(=O)n2C[C@H](OC(C)C)c1ccccc1OC [Compound I-7]
MIC: 2.1 to 4 µg/mL
--
compound: CCOC(=O)c1sc2c(c1C)c(=O)n([C@@H](C)C(=O)NC(C)C)c(=O)n2C[C@H](O)c1cc(F)ccc1OC [Compound I-44]
MIC: 2.1 to 4 µg/mL
--
compound: CCOC(=O)c1sc2c(c1C)c(=O)n(C(C)(C)C(=O)NC(C)C)c(=O)n2C[C@H](OCCOC)c1cc(F)ccc1OC [Compound I-11]
MIC: 2.1 to 4 µg/mL
--
compound: CCOC(=O)c1sc2c(c1C)c(=O)n(C(C)(C)C(=O)N1CCCC1)c(=O)n2C[C@H](O)c1cc(F)ccc1OC [Compound I-22]
MIC: 2.1 to 4 µg/mL
--
compound: CCOC(=O)c1sc2c(c1C)c(=O)n(C(C)(C)C(=O)NC(C)C)c(=O)n2C[C@H](OCCO)c1cc(F)ccc1OC [Compound I-18]
MIC: 0.25 to 1 µg/mL
--
compound: CCNC(=O)[C@@H](C)n1c(=O)c2c(C)c(C(=O)OCC)sc2n(C[C@H](OCCC#N)c2cc(F)ccc2OC)c1=O [Compound I-41]
MIC: 2.1 to 4 µg/mL
--
compound: CCOC(=O)c1sc2c(c1C)c(=O)n(C(C)(C)C(N)=O)c(=O)n2C[C@H](OCCC#N)c1cc(F)ccc1OC [Compound I-14]
MIC: 2.1 to 4 µg/mL
